src = patent US20100029654A1

Test system: primary cortico-hippocampal neuron cultures
Assay: MTT in primary screening
Conditions: Primary Screening; table sorted by Aβ1-40
Where a name gives a salt, the structure may show the parent alone.
Recorded MTT (% of ctl) values for a group of compounds are listed next.
Measure: MTT (% of ctl)

INSERT INTO results (compound, target, reported) VALUES
  ('CCOc1nc2cccc(C(=O)OC(C)OC(=O)OC3CCCCC3)c2n1Cc1ccc(-c2ccccc2-c2nn[nH]n2)cc1 (centres unmarked) [Candesartan Cilextil]', 'primary cortico-hippocampal neuron cultures', '41.2 % of ctl'),
  ('CC(CCc1ccccc1)NC(C)C(O)c1ccc(O)cc1 (centres unmarked) [Nylidrin Hydrochloride]', 'primary cortico-hippocampal neuron cultures', '79.7 % of ctl'),
  ('CCN1C[C@]2(C)CC[C@H](OC)[C@@]34C1[C@]1(OCO[C@@]15C[C@H](OC)[C@H]1C[C@]3(O)[C@@H]5[C@H]1OC)[C@@H](OC(C)=O)[C@H]24 [Deltaline]', 'primary cortico-hippocampal neuron cultures', '99.4 % of ctl'),
  ('NC(N)=NC(=O)c1nc(Cl)c(N2CCCCCC2)nc1N [N,N-Hexamethyleneamiloride]', 'primary cortico-hippocampal neuron cultures', '96.1 % of ctl'),
  ('Cn1cnc2c1c(=O)[nH]c(=O)n2C [Theobromine]', 'primary cortico-hippocampal neuron cultures', '97.2 % of ctl'),
  ('COC(=O)[C@H]1[C@H]2C[C@H]3c4[nH]c5ccccc5c4CCN3C[C@H]2CC[C@@H]1O [Rauwolscine Hydrochloride]', 'primary cortico-hippocampal neuron cultures', '98.0 % of ctl'),
  ('CC(C)N(CCC(C(N)=O)(c1ccccc1)c1ccccn1)C(C)C (centres unmarked) [Disopyramide Phosphate]', 'primary cortico-hippocampal neuron cultures', '71.2 % of ctl'),
  ('CCOC(=O)[C@H](CCc1ccccc1)N[C@@H](C)C(=O)N1[C@H](C(=O)O)C[C@H]2CCCC[C@@H]21 [Trandolapril]', 'primary cortico-hippocampal neuron cultures', '91.5 % of ctl');
